Test system: HSV-2, herpes simplex virus type 2, isolate 01-6332
Method: antiviral assay HSV-2 in Vero
Format: cell-based
Run Conditions: Human alphaherpesvirus 2, n = 4, read-out: IC50 of virus replication HSV-2
pIC50: −log10 of the molar value.
Measurement Label: pIC50

Name the recorded pIC50 for O=C(Nc1c(F)c(F)c(-c2cccc(OC(F)(F)F)c2)c(F)c1F)c1ccsc1C(=O)O [compound 1] .
< 5.00

* * *

Test system: Human adenovirus type 2 (HAdV-2)
Method: plaque reduction assay HAdV-2 in A549
Assay type: cell-based
Run Conditions: Human mastadenovirus C, A549, n = 8, read-out: IC50 antiviral activity against HAdV-2
Measurement Label: IC50 (nM)
Give the number; nM is assumed, so skip it.

Can you look up the measured IC50 of `O=C(Nc1c(F)c(F)c(-c2cccc(OC(F)(F)F)c2)c(F)c1F)c1ccsc1C(=O)O` for me?
560

* * *

Assayed System: DHODH (human) (Homo sapiens, UniProt Q02127)
Sequence (Q02127 whole entry): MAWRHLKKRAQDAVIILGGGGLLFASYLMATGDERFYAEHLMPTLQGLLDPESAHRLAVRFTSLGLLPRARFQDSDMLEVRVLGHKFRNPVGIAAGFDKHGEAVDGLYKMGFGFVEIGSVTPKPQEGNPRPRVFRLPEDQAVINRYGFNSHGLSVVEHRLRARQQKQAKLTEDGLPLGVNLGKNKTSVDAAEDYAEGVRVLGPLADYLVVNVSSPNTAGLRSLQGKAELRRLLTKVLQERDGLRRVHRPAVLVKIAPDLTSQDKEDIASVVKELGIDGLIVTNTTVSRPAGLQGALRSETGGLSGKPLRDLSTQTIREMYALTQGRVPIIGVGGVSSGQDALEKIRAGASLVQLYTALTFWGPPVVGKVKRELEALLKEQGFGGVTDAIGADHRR
Measurement Label: IC50 (nM)
Value expressed in nM; do not type the unit.

Returns the measured IC50 for the input compound. Input: `O=C(Nc1c(F)c(F)c(-c2cccc(OC(F)(F)F)c2)c(F)c1F)c1ccsc1C(=O)O`
1.5

* * *

Assayed System: PI3K-α/-β/-γ/-δ
Method: kinase activity assay PI3K
Run Conditions: read-out: Inhibitory activity in vitro (IC50) PI3K-α/-β/-γ/-δ
Procedure: Pharmacological parameters of compound 1 (Table 2) were determined by standard procedures, i.e. DHODH and kinase activity assays were performed according to Davis et al., (1996. The immunosuppressive metabolite of leflunomide is a potent inhibitor of human dihydroorotate dehydrogenase.
Measurement Label: IC50

What IC50 appears in the records for this molecule with PI3K-α/-β/-γ/-δ? O=C(Nc1c(F)c(F)c(-c2cccc(OC(F)(F)F)c2)c(F)c1F)c1ccsc1C(=O)O [compound 1]
> 1000 nM

* * *

System: Vaccina (vaccine virus, strain IHD-5)
Method: antiviral assay vaccinia virus in primary human fibroblasts
Assay type: cell-based
Run Conditions: Orthopoxvirus vaccinia, Fibroblast, read-out: IC50 of virus replication Vaccina
Measurement Label: IC50 (µM)
// units = µM; emit number, no label

Sample `O=C(Nc1c(F)c(F)c(-c2cccc(OC(F)(F)F)c2)c(F)c1F)c1ccsc1C(=O)O` — what was its IC50?
9.85

* * *

Assayed System: AKT-1/-2/-3
Method: kinase activity assay AKT
Run Conditions: read-out: Inhibitory activity in vitro (IC50) AKT-1/-2/-3
Measurement Label: IC50

# IC50 lookup, item `O=C(Nc1c(F)c(F)c(-c2cccc(OC(F)(F)F)c2)c(F)c1F)c1ccsc1C(=O)O`
> 15 µM

* * *

Assayed System: JAK-1/-2/-3
Method: kinase activity assay JAK
Run Conditions: read-out: Inhibitory activity in vitro (IC50) JAK-1/-2/-3
Measurement Label: IC50

Look at this compound and give its reported IC50. O=C(Nc1c(F)c(F)c(-c2cccc(OC(F)(F)F)c2)c(F)c1F)c1ccsc1C(=O)O [compound 1]
> 10 µM
